protocol.details: Solubility of SDC-TRAP-0063 (ganetespib placebo formulation, PEG-300)
Assay type: physicochemical
settings: ganetespib placebo formulation, organic solvent or mixture, thermodynamic from solid, kinetic solubility in ganetespib placebo formulation; Lot8; 7 days
measurement.kind: solubility at 7 days (mg/mL)
Write the value in mg/mL as a bare number.

Ask | Specify reported solubility at 7 days for the compound shown: CCc1c2c(nc3ccc(OC(=O)N4CCC(CCn5ccc6cc(-n7c(O)nnc7-c7cc(C(C)C)c(O)cc7O)ccc65)CC4)cc13)-c1cc3c(c(=O)n1C2)COC(=O)[C@]3(O)CC
Reply | 19.7

----------
Listed here are molecules together with their documented % Remaining (1 h, 37° C.).
protocol.details: Mouse plasma stability protocol, up to 1 h (Examples 16-18)
settings: mouse plasma, 1 h, 37° C.
Write it as a number; the unit % goes unstated.

Illustrative cases are given below, each with its answer.
molecule: CCc1c2c(nc3ccc(O)cc13)-c1cc3c(c(=O)n1C2)COC(=O)[C@@]3(CC)OC(=O)N1CCC(CCn2ccc3cc(-n4c(O)nnc4-c4cc(C(C)C)c(O)cc4O)ccc32)CC1
% Remaining (1 h, 37° C.), %: 91.5
//
molecule: CCNC(=O)c1nnc(-c2cc(C(C)C)c(O)cc2O)n1-c1ccc(CN2CCC(C(=O)N3CCC(C(=O)OC4(CC)C(=O)OCc5c4cc4n(c5=O)Cc5c-4nc4ccc(O)cc4c5CC)CC3)CC2)cc1 (centres unmarked)
% Remaining (1 h, 37° C.), %: 96

Ask | Please report the measured % Remaining (1 h, 37° C.) for CCNC(=O)c1nnc(-c2cc(C(C)C)c(O)cc2O)n1-c1ccc2c(ccn2CCC2CCN(C(=O)O[C@]3(CC)C(=O)OCc4c3cc3n(c4=O)Cc4c-3nc3ccc(O)cc3c4CC)CC2)c1
Reply | 86.1

Ask | Using known records, supply % Remaining (1 h, 37° C.) for CCc1c2c(nc3ccc(O)cc13)-c1cc3c(c(=O)n1C2)COC(=O)[C@@]3(CC)OC(=O)N1CCC(CCc2ccc(-n3c(O)nnc3-c3cc(C(C)C)c(O)cc3O)cc2)CC1
Reply | 95.5

Ask | Read the entry CCNC(=O)c1nnc(-c2cc(C(C)C)c(O)cc2O)n1-c1ccc2c(ccn2CCC2CCN(C(=O)Oc3ccc4nc5c(c(CC)c4c3)Cn3c-5cc4c(c3=O)COC(=O)[C@]4(O)CC)CC2)c1 and write its reported % Remaining (1 h, 37° C.).
Reply | 58.4
